# System: UISO
# assay overview: qHTS assay to identify novel small-molecules to repurpose for Merkel cell carcinoma treatment (AID 1296009); also: nearly all actives have a fitted effect of over 60% in size
# study conditions: MCC and control cell lines, CellTiter-Glo viability, 72 h; series mostly up to 46 µM
Results filed as inconclusive are left out. Activity calls are given as the source filed them. Calls follow the shape of the dose curve; as a rule, active = well fitted inhibition curve with a large enough effect; inconclusive = small, poorly fitted or top-dose-only effect; inactive = flat fitted curve, though single readings scatter. Residues, ends and D or L forms follow the SMILES beside them. *: point of attachment. Cbz = O=C(OCc1ccccc1)*
Outcomes: y = active, n = inactive

[[record]]
compound = "CC(C)C[C@@H](C=O)NC(=O)[C@H](CC(C)C)NC(=O)[C@H](CC(C)C)NC(=O)OCc1ccccc1 (Cbz-Leu-Leu-Leu-aldehyde)"
study_system = "UISO"
class_label = "y"

[[record]]
compound = "Cc1ccccc1C(=O)Nc1ccc(C(=O)N2CCCC(O)c3cc(Cl)ccc32)c(C)c1 (centres undefined)"
study_system = "UISO"
class_label = "n"

[[record]]
compound = "NC(=O)c1ncn([C@@H]2O[C@H](CO)[C@@H](O)[C@@H]2O)c1N"
study_system = "UISO"
class_label = "n"

[[record]]
compound = "COC(=O)[C@@H]1CC2=CC(=O)CC[C@]2(C)[C@@]23O[C@@H]2C[C@@]2(C)[C@H](CC[C@@]24CCC(=O)O4)[C@@H]13"
study_system = "UISO"
class_label = "n"

[[record]]
compound = "C[C@H](NCc1ccc2c(c1)nc(NC(=O)c1ccc(-c3cn[nH]c3)s1)n2CCc1ccccc1)C(C)(C)C"
study_system = "UISO"
class_label = "y"

[[record]]
compound = "C[C@H](NCc1ccc(OCc2cccc(F)c2)cc1)C(N)=O"
study_system = "UISO"
class_label = "y"

[[record]]
compound = "N#CNC(=NCCCCCCOc1ccc(Cl)cc1)Nc1ccncc1"
study_system = "UISO"
class_label = "y"

[[record]]
compound = "CC(=O)NCC(=O)N1[C@H]2CC[C@H]1c1cc(Nc3ncc(C(F)(F)F)c(NC4CCC4)n3)ccc12"
study_system = "UISO"
class_label = "y"

[[record]]
compound = "Oc1cc2c(cc1O)C1c3ccc(O)c(O)c3OCC1(O)C2 (centres undefined)"
study_system = "UISO"
class_label = "n"

[[record]]
compound = "Cn1c(Nc2ccc(C(F)(F)F)cc2)nc2cc(Oc3ccnc(-c4ncc(C(F)(F)F)[nH]4)c3)ccc21"
study_system = "UISO"
class_label = "y"

[[record]]
compound = "O=C1NCCc2[nH]c(-c3ccncc3)cc21"
study_system = "UISO"
class_label = "y"

[[record]]
compound = "Cn1cc(C[C@@H](N)C(=O)O)c2ccccc21"
study_system = "UISO"
class_label = "n"

[[record]]
compound = "COc1cc(OC)cc(-c2ccc3ncc4ccc(=O)n(-c5ccc(N6CCNCC6)c(C(F)(F)F)c5)c4c3c2)c1"
study_system = "UISO"
class_label = "y"

[[record]]
compound = "CCCCCCCCCCCC(CC1OC(=O)C1CCCCCC)OC(=O)C(CC(C)C)NC=O (centres undefined)"
study_system = "UISO"
class_label = "n"

[[record]]
compound = "C[C@@H](Oc1ccc2[nH]nc(C=Cc3cnn(CCO)c3)c2c1)c1c(Cl)cncc1Cl"
study_system = "UISO"
class_label = "y"

[[record]]
compound = "Nc1cccc2c1C(=O)N(C1CCC(=O)NC1=O)C2=O (centres undefined)"
study_system = "UISO"
class_label = "n"

[[record]]
compound = "COC[C@H](NC(=O)c1cnc(C)s1)C(=O)N[C@@H](COC)C(=O)N[C@@H](Cc1ccccc1)C(=O)[C@@]1(C)CO1"
study_system = "UISO"
class_label = "y"

[[record]]
compound = "c1coc(CNc2ncnc3nc[nH]c23)c1"
study_system = "UISO"
class_label = "n"

[[record]]
compound = "O=C(O)CCCCC(CCSCc1ccccc1)SCc1ccccc1 (centres undefined)"
study_system = "UISO"
class_label = "n"


----------
# assay overview: qHTS assay for environmental chemicals that activate the Aryl hydrocarbon Receptor (AhR) signaling pathway (AID 651777); also: % of control where 0% means no effect; nearly all actives have a fitted effect of over 15% in size
# study conditions: 1A2-DRE human hepatoma cells, luciferase, 24 h; stronger effect = higher value
Records with an inconclusive call do not appear.
Listed here are compounds together with their documented activation.
parameter: activation (%)

[[record]]
smiles_representation = "C[C@]12CC[C@@H]3c4ccc(O)cc4CC[C@H]3[C@H]1CC[C@H]2O"
observed = 2.62

[[record]]
smiles_representation = "OC[C@@H](O)[C@@H](O)[C@H](O)[C@@H](O)CO"
observed = 0.287

[[record]]
smiles_representation = "CC(C=CC1=C(C)CCCC1(C)C)=CC=CC(C)=CC(=O)Nc1ccc(O)cc1"
observed = -5.07

[[record]]
smiles_representation = "Cc1cc(O)c2c(c1)C(=O)c1cccc(O)c1C2=O"
observed = 0.266

[[record]]
smiles_representation = "O=C1c2cccc(O)c2C(=O)c2c(O)cc(CO)cc21"
observed = 2.38


----------
# assay overview: Quantitative High-Throughput drug screen in 47 multiple myeloma cell lines against the NCATS MIPE library collection: VP6_DJ cell viability assay (AID 1919867); also: nearly all actives have a fitted effect of over 40% in size
# study conditions: ATP luminescence, 48 h; series mostly up to 45.8 µM
Records with an inconclusive call do not appear. Active and inactive are the calls of the source. Calls follow the shape of the dose curve; as a rule, active = well fitted cell-killing curve with a large enough effect; inconclusive = small, poorly fitted or top-dose-only effect, or effect the other way; inactive = no such curve, though single readings can be large or run the other way.
Possible outcomes: true = active, false = inactive

[[record]]
molecule = "CC(=O)N[C@@H]1[C@H](O[C@@H]2c3ccc(c(Cl)c3)Oc3cc4cc(c3O[C@H]3O[C@H](CO)[C@@H](O)[C@H](O)[C@H]3NC(=O)CCCCCCCC(C)C)Oc3ccc(cc3Cl)C[C@H]3NC(=O)[C@H](N)c5ccc(O)c(c5)Oc5cc(O)cc(c5)[C@H](NC3=O)C(=O)N[C@H]4C(=O)N[C@H]3C(=O)N[C@@H]2C(=O)N[C@@H](C(=O)O)c2cc(O)cc(O[C@H]4O[C@H](CO)[C@@H](O)[C@H](O)[C@H]4O)c2-c2cc3ccc2O)O[C@H](CO)[C@@H](O)[C@@H]1O"
class_label = "false"

[[record]]
molecule = "O=C1NC(=O)C(=Cc2ccc3nccc(-c4ccncc4)c3c2)S1"
class_label = "true"

[[record]]
molecule = "Cc1ccc2nc(NCCN)c3ncc(C)n3c2c1"
class_label = "true"

[[record]]
molecule = "CCNC(=O)Nc1ccc(-c2nc3c(c(N4CCOC[C@H]4C)n2)CCN(C2COC2)C3)cc1"
class_label = "true"

[[record]]
molecule = "CC(O)(C#Cc1ccc2c(c1)N(c1nc(N)ncc1Cl)CC2)c1nccs1 (stereo unspecified)"
class_label = "true"

[[record]]
molecule = "CC(=O)C1=C(O)C=C2Oc3c(C(C)=O)c(O)c(C)c(O)c3C2(C)C1=O (stereo unspecified)"
class_label = "false"


----------
# System: MCC-13
# assay overview: qHTS assay to identify novel small-molecules to repurpose for Merkel cell carcinoma treatment (AID 1296009); also: nearly all actives have a fitted effect of over 60% in size
# study conditions: MCC and control cell lines, CellTiter-Glo viability, 72 h; series mostly up to 46 µM
Records with an inconclusive call do not appear. The source made the active and inactive calls. Calls follow the shape of the dose curve; as a rule, active = well fitted inhibition curve with a large enough effect; inconclusive = small, poorly fitted or top-dose-only effect; inactive = flat fitted curve, though single readings scatter. Positions of bridges follow the written chain, without caps; N, C: chain ends. Non-standard residues stand in square brackets, D forms with d. Residues, ends and D or L forms follow the SMILES beside them. ξ: configuration not given here. *: point of attachment. Octanoyl(6-Me) = CCC(C)CCCCC(=O)*; ξThr(3R) = C[C@@H](O)C(N)C(=O)O; dDab = NCC[C@@H](N)C(=O)O; Dab = NCC[C@H](N)C(=O)O; Cbz = O=C(OCc1ccccc1)*
Outcomes: active, inactive

[[record]]
molecule = "O=C(O)CCCCCC(=O)NN=C1CCCC1"
class_label = "inactive"

[[record]]
molecule = "C[C@H](NCc1ccc2c(c1)nc(NC(=O)c1ccc(-c3cn[nH]c3)s1)n2CCc1ccccc1)C(C)(C)C"
class_label = "active"

[[record]]
molecule = "CC[C@H]1OC(=O)[C@H](C)[C@@H](O[C@H]2C[C@@](C)(OC)[C@@H](O)[C@H](C)O2)[C@H](C)[C@@H](O[C@@H]2O[C@H](C)C[C@H](N(C)C)[C@@H]2O)[C@](C)(OC)C[C@@H](C)C(=O)[C@H](C)[C@@H](O)[C@]1(C)O"
class_label = "inactive"

[[record]]
molecule = "C[C@]12CC[C@@H]3c4ccc(O)cc4CC[C@H]3[C@H]1CC[C@H]2O"
class_label = "inactive"

[[record]]
molecule = "CCOC(=O)C=C[C@H](C[C@@H]1CCNC1=O)NC(=O)[C@@H](CC(=O)[C@@H](NC(=O)c1cc(C)on1)C(C)C)Cc1ccc(F)cc1"
class_label = "inactive"

[[record]]
molecule = "CC(C)C[C@@H](C=O)NC(=O)[C@H](CC(C)C)NC(=O)[C@H](CC(C)C)NC(=O)OCc1ccccc1 (Cbz-Leu-Leu-Leu-aldehyde)"
class_label = "active"

[[record]]
molecule = "O=C(CN1C(=O)C2(CCCC2)NC[C@H]1c1cc(F)cc(F)c1)Nc1ccc2c(c1)C[C@@]1(C2)C(=O)Nc2ncccc21"
class_label = "inactive"

[[record]]
molecule = "CC(Oc1ccc(O)cc1)(P(=O)(O)O)P(=O)(O)O"
class_label = "inactive"

[[record]]
molecule = "N#CC(=C(O)c1ccc(Cl)cc1Cl)c1nc2cc(Cl)ccc2c(=O)[nH]1"
class_label = "inactive"

[[record]]
molecule = "C#Cc1cccc(Nc2ncnc3cc(OCCOC)c(OCCO)cc23)c1"
class_label = "inactive"

[[record]]
molecule = "O=C(O)[C@H](CC(=O)N1C[C@@H]2CCCC[C@H]2C1)Cc1ccccc1"
class_label = "inactive"

[[record]]
molecule = "CC1(C)O[C@@H]2C[C@H]3[C@@H]4CCC5=CC(=O)C=C[C@]5(C)[C@@H]4[C@@H](O)C[C@]3(C)[C@]2(C(=O)CO)O1"
class_label = "inactive"

[[record]]
molecule = "O=C(O)C(=O)Nc1cccc(C2=NN=N[N]2)c1"
class_label = "inactive"

[[record]]
molecule = "C[C@@H](NCc1cc2ccccc2[nH]1)c1cccc2ccccc12"
class_label = "inactive"

[[record]]
molecule = "Nc1ccn(C2CO[C@H](CO)O2)c(=O)n1 (stereo not given in full)"
class_label = "inactive"

[[record]]
molecule = "OC[C@@H](O)[C@@H](O)[C@H](O)[C@@H](O)CO"
class_label = "inactive"

[[record]]
molecule = "CCC(C(=O)O)C1CCC(C)C(C(C)C(O)C(C)C(=O)C(CC)C2OC3(C=CC(O)[C@@]4(CC[C@](C)(C5CC[C@@](O)(CC)C(C)O5)O4)O3)C(C)CC2C)O1 (stereo not given in full)"
class_label = "active"

[[record]]
molecule = "CCC(C)CCCCC(=O)N[C@@H](CCN)C(=O)NC(C(=O)N[C@H](CCN)C(=O)N[C@@H]1CCNC(=O)C([C@@H](C)O)NC(=O)[C@@H](CCN)NC(=O)[C@@H](CCN)NC(=O)[C@@H](CC(C)C)NC(=O)[C@H](Cc2ccccc2)NC(=O)[C@H](CCN)NC1=O)[C@@H](C)O (stereo partly drawn) ({Octanoyl(6-Me)}-[Dab][ξThr(3R)][dDab][dDab][Dab]F[dL][dDab][dDab][ξThr(3R)]; lactam 4-C)"
class_label = "inactive"

[[record]]
molecule = "NC[C@H]1O[C@H](O[C@H]2[C@@H](O)[C@@H](O[C@H]3O[C@H](CO)[C@@H](O)[C@H](N)[C@@H]3O)[C@H](N)C[C@@H]2N)[C@H](N)C[C@H]1O"
class_label = "inactive"

[[record]]
molecule = "COc1ccc(C(C)=O)c(O)c1"
class_label = "inactive"

[[record]]
molecule = "CC(=O)O[C@H]1C[C@@H]2CC[C@H]3[C@H]4C[C@H]([N+]5(C)CCCCC5)[C@@H](OC(C)=O)[C@@]4(C)CC[C@@H]3[C@@]2(C)C[C@H]1[N+]1(C)CCCCC1"
class_label = "inactive"

[[record]]
molecule = "Nc1nc(=O)n([C@H]2CSC(CO)O2)cc1F (stereo not given in full)"
class_label = "inactive"

[[record]]
molecule = "CC(C)N(CC[C@H](c1ccccc1)c1cc(CO)ccc1O)C(C)C"
class_label = "inactive"

[[record]]
molecule = "CC(=O)NC(CS)C(=O)O (stereo not given)"
class_label = "inactive"

[[record]]
molecule = "CC(C)(N)c1ccc(-c2nc3ccccc3nc2-c2ccccc2)cc1"
class_label = "inactive"

[[record]]
molecule = "C=CC(=O)Nc1cc(NC(=O)c2ccc(C)c(NC(=O)c3ccno3)c2)cc(C(F)(F)F)c1"
class_label = "inactive"

[[record]]
molecule = "CCn1c(=O)c2c(nc(C=Cc3ccc(OC)c(OC)c3)n2C)n(CC)c1=O"
class_label = "inactive"

[[record]]
molecule = "CC(=O)ON=C1C(c2c(O)[nH]c3cc(Br)ccc23)=Nc2ccccc21"
class_label = "inactive"

[[record]]
molecule = "CN[C@@H]1C[C@H]2O[C@@](C)([C@H]1OC)n1c3ccccc3c3c4c(c5c6ccccc6n2c5c31)C(=O)N[C@H]4O"
class_label = "active"

[[record]]
molecule = "c1coc(CNc2ncnc3nc[nH]c23)c1"
class_label = "inactive"

[[record]]
molecule = "COc1cccc2c1C(=O)c1c(O)c3c(c(O)c1C2=O)C[C@@](O)(C(=O)CO)C[C@@H]3O[C@H]1C[C@H](N)[C@H](OC2CCCCO2)[C@H](C)O1 (stereo not given in full)"
class_label = "active"

[[record]]
molecule = "COc1cc([C@@H]2c3cc4c(cc3[C@@H](O[C@@H]3O[C@@H]5CO[C@@H](c6cccs6)O[C@@H]5[C@H](O)[C@@H]3O)[C@H]3COC(=O)[C@H]23)OCO4)cc(OC)c1O"
class_label = "active"

[[record]]
molecule = "COc1cc2c(cc1OC)[C@@H]1C(=O)c3ccc4c(c3O[C@@H]1CO2)C=CC(C)(C)O4"
class_label = "inactive"

[[record]]
molecule = "N#Cc1cc(NC(=O)Nc2nnc(-c3ccncc3)s2)ccc1-c1cn[nH]c1"
class_label = "inactive"

[[record]]
molecule = "COC(=O)C=CC(=O)OC"
class_label = "inactive"

